Target: CD3 (antigen of the binding affinity table of Example 1) (UniProt P07766)
Assay: kinetic fit with two-state parameters; method not given
PROPERTY NAME: pKd
Quick note: pKd values are minus log10 of concentrations in mol/L.

Reference set, count: 9
What value of measured pKd is listed for H2L3 (antibody, V domains shown) VH: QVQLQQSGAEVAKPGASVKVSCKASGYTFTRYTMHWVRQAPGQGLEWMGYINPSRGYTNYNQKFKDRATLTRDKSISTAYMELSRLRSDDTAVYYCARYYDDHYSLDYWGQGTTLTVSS VL: DIQLTQSPSSLSASVGDRVTITCSASSSVSYMNWYQQKPGKAPKLLIYDTSKLASGVPSRFSGSGSGTDYTLTISSLQPEDFATYYCQQWSSNPFTFGSGTKLEINR ?
9.21

Subsequent entry: H3L6 (antibody, V domains shown) VH: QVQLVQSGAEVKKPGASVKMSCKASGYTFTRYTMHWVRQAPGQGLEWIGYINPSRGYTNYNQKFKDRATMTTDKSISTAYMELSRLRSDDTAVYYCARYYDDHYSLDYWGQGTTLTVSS VL: DIQMTQSPSSLSASVGDRVTITCSASSSVSYMNWYQQKPGKAPKLWIYDTSKLASGVPSRFSGSGSGTDYTLTISSLQPEDFATYYCQQWSSNPFTFGSGTKLEINR
8.05

Subsequent entry: H3L4 (antibody, V domains shown) VH: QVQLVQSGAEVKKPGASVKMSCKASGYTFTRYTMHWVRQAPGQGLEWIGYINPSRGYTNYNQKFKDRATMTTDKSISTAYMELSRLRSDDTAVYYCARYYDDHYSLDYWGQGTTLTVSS VL: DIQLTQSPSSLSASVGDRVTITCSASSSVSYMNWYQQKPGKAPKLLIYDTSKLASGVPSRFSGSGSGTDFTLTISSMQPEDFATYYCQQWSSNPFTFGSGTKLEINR
8.88

Subsequent entry: H4L6 (antibody, V domains shown) VH: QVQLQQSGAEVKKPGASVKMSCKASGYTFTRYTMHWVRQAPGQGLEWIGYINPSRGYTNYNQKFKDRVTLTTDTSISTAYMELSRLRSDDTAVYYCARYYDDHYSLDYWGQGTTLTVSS VL: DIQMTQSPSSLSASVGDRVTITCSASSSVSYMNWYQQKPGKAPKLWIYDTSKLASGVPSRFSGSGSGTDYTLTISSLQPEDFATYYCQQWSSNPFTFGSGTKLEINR
7.91

Subsequent entry: H3L1 (antibody, V domains shown) VH: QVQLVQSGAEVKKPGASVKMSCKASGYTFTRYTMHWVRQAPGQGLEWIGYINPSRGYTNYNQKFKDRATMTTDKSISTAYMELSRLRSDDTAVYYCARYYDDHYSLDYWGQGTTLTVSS VL: DIQMTQSPSSLSASVGDRVTMTCSASSSVSYMNWYQQKPGKAPKRLIYDTSKLASGVPSRFSGSGSGTDFTLTISSLQPEDFATYYCQQWSSNPFTFGSGTKLEINR
8.94

Subsequent entry: H2L4 (antibody, V domains shown) VH: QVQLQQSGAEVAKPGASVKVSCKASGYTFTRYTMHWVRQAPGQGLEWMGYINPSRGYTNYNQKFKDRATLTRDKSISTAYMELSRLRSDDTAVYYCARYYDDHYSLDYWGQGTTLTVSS VL: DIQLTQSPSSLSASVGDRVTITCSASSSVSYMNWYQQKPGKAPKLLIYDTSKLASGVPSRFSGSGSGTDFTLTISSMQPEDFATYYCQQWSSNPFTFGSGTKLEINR
9.19

Subsequent entry: H3L2 (antibody, V domains shown) VH: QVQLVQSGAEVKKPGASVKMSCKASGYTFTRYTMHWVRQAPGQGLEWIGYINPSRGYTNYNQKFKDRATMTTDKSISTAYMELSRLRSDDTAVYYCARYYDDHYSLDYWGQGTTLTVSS VL: DIQMTQSPSSLSASVGDRVTMTCSASSSVSYMNWYQQKPGKAPKLLIYDTSKLASGVPSRFSGSGSGTDFTLTISSMQPEDFATYYCQQWSSNPFTFGSGTKLEINR
8.76

Subsequent entry: H2L6 (antibody, V domains shown) VH: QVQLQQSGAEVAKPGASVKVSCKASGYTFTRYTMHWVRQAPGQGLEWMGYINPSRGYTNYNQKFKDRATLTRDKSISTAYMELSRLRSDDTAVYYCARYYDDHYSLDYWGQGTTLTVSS VL: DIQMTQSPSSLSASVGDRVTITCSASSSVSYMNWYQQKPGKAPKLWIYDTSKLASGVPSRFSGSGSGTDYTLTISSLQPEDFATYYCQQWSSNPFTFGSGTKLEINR
8.25

Subsequent entry: H3L5 (antibody, V domains shown) VH: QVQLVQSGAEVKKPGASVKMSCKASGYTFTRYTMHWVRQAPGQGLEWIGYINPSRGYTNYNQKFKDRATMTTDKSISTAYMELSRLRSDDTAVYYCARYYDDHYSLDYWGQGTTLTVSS VL: DIQMTQSPSSLSASVGDRVTITCSASSSVSYMNWYQQKPGKAPKRWIYDTSKLASGVPSRFSGSGSGTDFTLTISSLQPEDFATYYCQQWSSNPFTFGSGTKLEINR
8.12

Further cases:
What value of measured pKd is listed for H4L4 (antibody, V domains shown) VH: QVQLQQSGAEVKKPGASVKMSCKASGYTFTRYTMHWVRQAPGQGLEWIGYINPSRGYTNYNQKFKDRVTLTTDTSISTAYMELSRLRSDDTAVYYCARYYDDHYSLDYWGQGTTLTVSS VL: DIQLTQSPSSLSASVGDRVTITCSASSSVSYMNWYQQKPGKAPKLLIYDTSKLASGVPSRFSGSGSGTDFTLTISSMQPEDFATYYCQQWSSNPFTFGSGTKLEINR ?
7.86
